# Test system: HeLa Kyoto
# Assay Remarks: solubility change mitosis vs G1/S (difference of NP-40 vs SDS log2 ratios) (log2 ratio difference); higher = more soluble in mitosis
A collection of sequences and their measured solubility change mitosis (log2)

| Macromolecule Sequence | Target Or Test System | solubility change mitosis (log2) |
| --- | --- | --- |
| MADAAPQLGKRKRELDVEEAHAASTEEKEAGVGNGTCAPVRLPFSGFRLQKVLRESARDKIIFLHGKVNEASGDGDGEDAVVILEKTPFQVEQVAQLLTGSPELQLQFSNDIYSTYHLFPPRQLNDVKTTVVYPATEKHLQKYLRQDLRLIRETGDDYRNITLPHLESQSLSIQWVYNILDKKAEADRIVFENPDPSDGFVLIPDLKWNQQQLDDLYLIAICHRRGIRSLRDLTPEHLPLLRNILHQGQEAILQRYRMKGDHLRVYLHYLPSYYHLHVHFTALGFEAPGSGVERAHLLAEVIENLECDPRHYQQRTLTFALRADDPLLKLLQEAQQS [DCPS] | HeLa Kyoto | -0.0249 |
| MDGTRTSLDIEEYSDTEVQKNQVLTLEEWQDKWVNGKTAFHQEQGHQLLKKHLDTFLKGKSGLRVFFPLCGKAVEMKWFADRGHSVVGVEISELGIQEFFTEQNLSYSEEPITEIPGTKVFKSSSGNISLYCCSIFDLPRTNIGKFDMIWDRGALVAINPGDRKCYADTMFSLLGKKFQYLLCVLSYDPTKHPGPPFYVPHAEIERLFGKICNIRCLEKVDAFEERHKSWGIDCLFEKLYLLTEK [TPMT] | HeLa Kyoto | -0.18 |
| MRGAGAILRPAARGARDLNPRRDISSWLAQWFPRTPARSVVALKTPIKVELVAGKTYRWCVCGRSKKQPFCDGSHFFQRTGLSPLKFKAQETRMVALCTCKATQRPPYCDGTHRSERVQKAEVGSPL [CISD3] | HeLa Kyoto | 0.0825 |
| MAAMASLGALALLLLSSLSRCSAEACLEPQITPSYYTTSDAVISTETVFIVEISLTCKNRVQNMALYADVGGKQFPVTRGQDVGRYQVSWSLDHKSAHAGTYEVRFFDEESYSLLRKAQRNNEDISIIPPLFTVSVDHRGTWNGPWVSTEVLAAAIGLVIYYLAFSAKSHIQA [SSR4] | HeLa Kyoto | 0.0331 |
| MGLLRIMMPPKLQLLAVVAFAVAMLFLENQIQKLEESRSKLERAIARHEVREIEQRHTMDGPRQDATLDEEEDMVIIYNRVPKTASTSFTNIAYDLCAKNKYHVLHINTTKNNPVMSLQDQVRFVKNITSWKEMKPGFYHGHVSYLDFAKFGVKKKPIYINVIRDPIERLVSYYYFLRFGDDYRPGLRRRKQGDKKTFDECVAEGGSDCAPEKLWLQIPFFCGHSSECWNVGSRWAMDQAKYNLINEYFLVGVTEELEDFIMLLEAALPRFFRGATELYRTGKKSHLRKTTEKKLPTKQTIAKLQQSDIWKMENEFYEFALEQFQFIRAHAVREKDGDLYILAQNFFYEKIYPKSN [HS2ST1] | HeLa Kyoto | 0.0318 |
| MVSPATRKSLPKVKAMDFITSTAILPLLFGCLGVFGLFRLLQWVRGKAYLRNAVVVITGATSGLGKECAKVFYAAGAKLVLCGRNGGALEELIRELTASHATKVQTHKPYLVTFDLTDSGAIVAAAAEILQCFGYVDILVNNAGISYRGTIMDTTVDVDKRVMETNYFGPVALTKALLPSMIKRRQGHIVAISSIQGKMSIPFRSAYAASKHATQAFFDCLRAEMEQYEIEVTVISPGYIHTNLSVNAITADGSRYGVMDTTTAQGRSPVEVAQDVLAAVGKKKKDVILADLLPSLAVYLRTLAPGLFFSLMASRARKERKSKNS [DHRS7B] | HeLa Kyoto | -0.121 |
| MSSARFDSSDRSAWYMGPVSRQEAQTRLQGQRHGMFLVRDSSTCPGDYVLSVSENSRVSHYIINSLPNRRFKIGDQEFDHLPALLEFYKIHYLDTTTLIEPAPRYPSPPMGSVSAPNLPTAEDNLEYVRTLYDFPGNDAEDLPFKKGEILVIIEKPEEQWWSARNKDGRVGMIPVPYVEKLVRSSPHGKHGNRNSNSYGIPEPAHAYAQPQTTTPLPAVSGSPGAAITPLPSTQNGPVFAKAIQKRVPCAYDKTALALEVGDIVKVTRMNINGQWEGEVNGRKGLFPFTHVKIFDPQNPDENE [CRKL] | HeLa Kyoto | 0.0605 |
| MTEADVNPKAYPLADAHLTKKLLDLVQQSCNYKQLRKGANEATKTLNRGISEFIVMAADAEPLEIILHLPLLCEDKNVPYVFVRSKQALGRACGVSRPVIACSVTIKEGSQLKQQIQSIQQSIERLLV [SNU13] | HeLa Kyoto | 1.04 |
| MPMFIVNTNVPRASVPDGFLSELTQQLAQATGKPPQYIAVHVVPDQLMAFGGSSEPCALCSLHSIGKIGGAQNRSYSKLLCGLLAERLRISPDRVYINYYDMNAANVGWNNSTFA [MIF] | HeLa Kyoto | -0.0337 |
| MGAVTDDEVIRKRLLIDGDGAGDDRRINLLVKSFIKWCNSGSQEEGYSQYQRMLSTLSQCEFSMGKTLLVYDMNLREMENYEKIYKEIECSIAGAHEKIAECKKQILQAKRIRKNRQEYDALAKVIQHHPDRHETLKELEALGKELEHLSHIKESVEDKLELRRKQFHVLLSTIHELQQTLENDEKLSEVEEAQEASMETDPKP [THOC7] | HeLa Kyoto | 0.387 |
| MSVAGLKKQFHKATQKVSEKVGGAEGTKLDDDFKEMERKVDVTSRAVMEIMTKTIEYLQPNPASRAKLSMINTMSKIRGQEKGPGYPQAEALLAEAMLKFGRELGDDCNFGPALGEVGEAMRELSEVKDSLDIEVKQNFIDPLQNLHDKDLREIQHHLKKLEGRRLDFDYKKKRQGKIPDEELRQALEKFDESKEIAESSMFNLLEMDIEQVSQLSALVQAQLEYHKQAVQILQQVTVRLEERIRQASSQPRREYQPKPRMSLEFPTGDSTQPNGGLSHTGTPKPSGVQMDQPCCRALYDFEPENEGELGFKEGDIITLTNQIDENWYEGMLHGHSGFFPINYVEILVALPH [SH3GL2] | HeLa Kyoto | -0.159 |

###

# System: HeLa Kyoto
# Assay Remarks: solubility change mitosis vs G1/S (difference of NP-40 vs SDS log2 ratios) (log2 ratio difference); higher = more soluble in mitosis
A collection of sequences and their measured solubility change mitosis (log2)

| Macromolecule Sequence | solubility change mitosis (log2) |
| --- | --- |
| MAGVACLGKAADADEWCDSGLGSLGPDAAAPGGPGLGAELGPGLSWAPLVFGYVTEDGDTALHLAVIHQHEPFLDFLLGFSAGTEYMDLQNDLGQTALHLAAILGETSTVEKLYAAGAGLCVAERRGHTALHLACRVGAHACARALLQPRPRRPREAPDTYLAQGPDRTPDTNHTPVALYPDSDLEKEEEESEEDWKLQLEAENYEGHTPLHVAVIHKDVEMVRLLRDAGADLDKPEPTCGRSPLHLAVEAQAADVLELLLRAGANPAARMYGGRTPLGSAMLRPNPILARLLRAHGAPEPEGEDEKSGPCSSSSDSDSGDEGDEYDDIVVHSSRSQTRLPPTPASKPLPDDPRPV [NFKBIB] | -0.224 |
| MNTVLSRANSLFAFSLSVMAALTFGCFITTAFKDRSVPVRLHVSRIMLKNVEDFTGPRERSDLGFITFDITADLENIFDWNVKQLFLYLSAEYSTKNNALNQVVLWDKIVLRGDNPKLLLKDMKTKYFFFDDGNGLKGNRNVTLTLSWNVVPNAGILPLVTGSGHVSVPFPDTYEITKSY [SPCS3] | -0.0576 |
| METSAPRAGSQVVATTARHSAAYRADPLRVSSRDKLTEMAASSQGNFEGNFESLDLAEFAKKQPWWRKLFGQESGPSAEKYSVATQLFIGGVTGWCTGFIFQKVGKLAATAVGGGFFLLQLANHTGYIKVDWQRVEKDMKKAKEQLKIRKSNQIPTEVRSKAEEVVSFVKKNVLVTGGFFGGFLLGMAS [FUNDC2] | -0.0574 |

###

# System: HeLa Kyoto
# Assay Remarks: thermal stability score vs G1/S (z-score of summed log2 fold changes over temperatures); higher = more thermally stable than in G1/S
# Particulars: cell cycle stage: mitosis
Label 0 if thermal stability score falls below -1; label 1 in every other case.

| Macromolecule Sequence | Label |
| --- | --- |
| MSKPPPKPVKPGQVKVFRALYTFEPRTPDELYFEEGDIIYITDMSDTNWWKGTSKGRTGLIPSNYVAEQAESIDNPLHEAAKRGNLSWLRECLDNRVGVNGLDKAGSTALYWACHGGHKDIVEMLFTQPNIELNQQNKLGDTALHAAAWKGYADIVQLLLAKGARTDLRNIEKKLAFDMATNAACASLLKKKQGTDAVRTLSNAEDYLDDEDSD [OSTF1] | 1 |
| MCGNNMSTPLPAIVPAARKATAAVIFLHGLGDTGHGWAEAFAGIRSSHIKYICPHAPVRPVTLNMNVAMPSWFDIIGLSPDSQEDESGIKQAAENIKALIDQEVKNGIPSNRIILGGFSQGGALSLYTALTTQQKLAGVTALSCWLPLRASFPQGPIGGANRDISILQCHGDCDPLVPLMFGSLTVEKLKTLVNPANVTFKTYEGMMHSSCQQEMMDVKQFIDKLLPPID [LYPLA1] | 1 |
| MAELTALESLIEMGFPRGRAEKALALTGNQGIEAAMDWLMEHEDDPDVDEPLETPLGHILGREPTSSEQGGLEGSGSAAGEGKPALSEEERQEQTKRMLELVAQKQREREEREEREALERERQRRRQGQELSAARQRLQEDEMRRAAEERRREKAEELAARQRVREKIERDKAERAKKYGGSVGSQPPPVAPEPGPVPSSPSQEPPTKREYDQCRIQVRLPDGTSLTQTFRAREQLAAVRLYVELHRGEELGGGQDPVQLLSGFPRRAFSEADMERPLQELGLVPSAVLIVAKKCPS [UBXN1] | 0 |
| MLRSCAARLRTLGALCLPPVGRRLPGSEPRPELRSFSSEEVILKDCSVPNPSWNKDLRLLFDQFMKKCEDGSWKRLPSYKRTPTEWIQDFKTHFLDPKLMKEEQMSQAQLFTRSFDDGLGFEYVMFYNDIEKRMVCLFQGGPYLEGPPGFIHGGAIATMIDATVGMCAMMAGGIVMTANLNINYKRPIPLCSVVMINSQLDKVEGRKFFVSCNVQSVDEKTLYSEATSLFIKLNPAKSLT [THEM4] | 0 |
| MIKLFSLKQQKKEEESAGGTKGSSKKASAAQLRIQKDINELNLPKTCDISFSDPDDLLNFKLVICPDEGFYKSGKFVFSFKVGQGYPHDPPKVKCETMVYHPNIDLEGNVCLNILREDWKPVLTINSIIYGLQYLFLEPNPEDPLNKEAAEVLQNNRRLFEQNVQRSMRGGYIGSTYFERCLK [UBE2M] | 0 |
| MVIRVYIASSSGSTAIKKKQQDVLGFLEANKIGFEEKDIAANEENRKWMRENVPENSRPATGYPLPPQIFNESQYRGDYDAFFEARENNAVYAFLGLTAPPGSKEAEVQAKQQA [SH3BGRL] | 0 |
| MQDPNADTEWNDILRKKGILPPKESLKELEEEAEEEQRILQQSVVKTYEDMTLEELEDHEDEFNEEDERAIEMYRRRRLAEWKATKLKNKFGEVLEISGKDYVQEVTKAGEGLWVILHLYKQGIPLCALINQHLSGLARKFPDVKFIKAISTTCIPNYPDRNLPTIFVYLEGDIKAQFIGPLVFGGMNLTRDELEWKLSESGAIMTDLEENPKKPIEDVLLSSVRRSVLMKRDSDSEGD [PDCL3] | 1 |

Source listed as the supplement of paper PMC5998384.
